testSystem: full-length beta-Catenin (Uniprot ID P35222) (Homo sapiens (Human)) (UniProt P35222)
testDetails: fluorescence polarization competition; full-length beta-catenin, competitor 5FAM-TCF4(10-53)
Starred links: 1 amine or outer side, 2 acyl side, 3 side chain; linkers in the order of their positions; H or OH if unused. Positions of bridges follow the written chain, without caps; N, C: chain ends. Non-standard residues stand in square brackets, D forms with d. Primed or numbered codes have the meaning given here. *: point of attachment. PyrS2″ = (S)-3-amino-1-((pent-4-en-1-yloxy)carbonyl)pyrrolidine-3-carboxylic acid (stapling residue), C=CCCCOC(=O)N1CC[C@@](N[*:1])(C(=O)[*:2])C1; B5(4) = 2,2-bis(4-pentenyl)glycine = 2-amino-2-(pent-4-en-1-yl)hept-6-enoic acid (stitching residue), C=CCCCC(CCCC=C)(N[*:1])C(=O)[*:2]; B5(5) = 2,2-bis(4-pentenyl)glycine, 2-amino-2-(pent-4-en-1-yl)hept-6-enoic acid (stitching residue), C=CCCCC(CCCC=C)(N[*:1])C(=O)[*:2]; TfeGA = (S)-2-amino-3-((carboxymethyl)(2,2,2-trifluoroethyl)amino)propanoic acid, O=C([C@H](CN(CC(=O)[*:3])CC(F)(F)F)N[*:1])[*:2]; B5(3) = 2,2-bis(4-pentenyl)glycine (stitching residue), C=CCCCC(CCCC=C)(N[*:1])C(=O)[*:2]; Phe(3-COOH) = N[C@@H](Cc1cccc(C(=O)O)c1)C(=O)O; Phe(2-CF3) = N[C@@H](Cc1ccccc1C(F)(F)F)C(=O)O; Phe(2-Cl) = N[C@@H](Cc1ccccc1Cl)C(=O)O; Bta = N[C@@H](Cc1csc2ccccc12)C(=O)O; Lys(iPr) = CC(C)NCCCC[C@H](N)C(=O)O; αAllylPro = C=CC[C@@]1(C(=O)O)CCCN1; tBuAla = CC(C)(C)C[C@H](N)C(=O)O; 3Thi = N[C@@H](Cc1ccsc1)C(=O)O; Aib = CC(C)(N)C(=O)O; ClAc = O=C(CCl)*
Parameter pIC50: see the listing below.
Remember, pIC50 is on a log scale: it is -log10 of the molar concentration.

// below: answered binders
Ac-[αAllylPro]D[tBuAla][B5(4)]D[TfeGA]AAFL[PyrS2″][3Thi][Bta]V-NH2 (staple 1-4, 4-11; not fully specified) [I-1752]
7.06
Ac-[αAllylPro]D[tBuAla][B5(5)]D[Phe(3-COOH)]AAFL[PyrS2″][Phe(2-CF3)][Bta]QL[Aib]-NH2 (staple 1-4, 4-11) [I-2386]
7.12
Ac-[αAllylPro]D[tBuAla][B5(4)]D[TfeGA]AAFL[PyrS2″][3Thi][Bta]V-NH2 (staple 1-4, 4-11; not fully specified) [I-1751]
6.98
Ac-[αAllylPro]D[tBuAla][B5(5)]D[Phe(3-COOH)]AAFL[PyrS2″][Phe(2-CF3)][Bta]QLT-NH2 (staple 1-4, 4-11) [I-2383]
7.11

Q: Reported pIC50, binder Ac-[αAllylPro]D[tBuAla][B5(4)]D[TfeGA]AAFL[PyrS2″][3Thi][Bta]F-NH2 (staple 1-4, 4-11; also: -CH=CH- in each staple reduced to -CH2-CH2-) [I-1755] : ____
A: 6.24

Q: Same lookup for ClAc-[αAllylPro]D[tBuAla][B5(3)]D[Phe(3-COOH)]AAFL[PyrS2″][Phe(2-Cl)][Bta]A-NH2 (staple 1-4, 4-11) [I-2253] , please.
A: 6.72

Q: Same lookup for Ac-[αAllylPro]D[tBuAla][B5(5)]D[TfeGA]AAFL[PyrS2″][3Thi][Bta]F-NH2 (staple 1-4, 4-11) [I-1750] , please.
A: 6.98

Q: Same lookup for Ac-[αAllylPro]D[tBuAla][B5(5)]D[TfeGA][Lys(iPr)]AFL[PyrS2″][3Thi][Bta]F-NH2 (staple 1-4, 4-11) [I-1761] , please.
A: 7.41
